For each record, write down the corresponding MIC90.
- System: Staphylococcus aureus strains isolated from atopic dermatitis (AD) patients
- Protocol Details: microbe, parasite or virus in culture
- Conditions Used: 18 h
The figure you give is taken to be in µg/mL; do not add the unit.

Data request: Entry CC1(C)S[C@@H]2[C@H](NC(=O)[C@H](N)c3ccccc3)C(=O)N2[C@H]1C(=O)O [Ampicillin, ampicillin] has what MIC90?
Data returned: 16

Data request: Entry CCC[C@@H]1C[C@@H](C(=O)N[C@@H]([C@H]2O[C@H](SC)[C@H](O)[C@@H](O)[C@H]2O)[C@@H](C)O)N(C)C1 [Lincomycin, lincomycin] has what MIC90?
Data returned: 64
